Biological target: Neuronal acetylcholine receptor subunit alpha-7 (Homo sapiens)
Assay: Partial agonist activity at human alpha7 nAChR expressed in Xenopus laevis oocytes assessed as direct potentiation of Ach response at 10 uM at -60 mV holding potential by measuring net charge co-application of compound and PNU-120596 by two electrode voltage-clamp assay
Assay type: cell-based
Conditions: Oocyte, filed as partial agonist
Activity calls are given as the source filed them. The calls are words filed in the database; no cut-off is given here.
Measurement Type: Activity

Worked examples, 6 compounds total:
Challenge: Return Activity for the following compound: `O=C(c1ccc(-c2cccc(C(F)(F)F)c2)o1)N1C[C@H]2C[C@@H]1CN2`
Response given: 43.7

Challenge: Return Activity for the following compound: `O=C(c1ccc(-c2cncc3ccccc23)o1)N1CCN2CCC1CC2`
Response given: 20.4

Challenge: Return Activity for the following compound: `O=C(c1ccc(-c2cccc([N+](=O)[O-])c2)o1)N1CCN2CCC1CC2`
Response given: 12.2

Challenge: Return Activity for the following compound: `O=C(c1ccco1)N1CCN2CCC1CC2`
Response given: Active

Challenge: Return Activity for the following compound: `O=C(c1ccc(-c2ccc(C(F)(F)F)cc2)o1)N1CCN2CCC1CC2`
Response given: 6.25

Challenge: Return Activity for the following compound: `C[N+]12CCC(CC1)N(C(=O)c1ccc(-c3cccc(C(F)(F)F)c3)o1)CC2`
Response given: Active

Further cases:
Challenge: Return Activity for the following compound: `CC(=O)N1CCN2CCC1CC2`
Response given: Active

Challenge: Return Activity for the following compound: `Nc1cccc(-c2ccc(C(=O)N3CCN4CCC3CC4)o2)c1`
Response given: 24.6

Challenge: Return Activity for the following compound: `O=C(c1ccc(-c2cccc(C(F)(F)F)c2)o1)N1C[C@@H]2C[C@H]1CN2`
Response given: 15.2

---

Biological target: Neuronal acetylcholine receptor subunit alpha-7 (Homo sapiens, UniProt P36544)
Sequence (P36544 whole entry): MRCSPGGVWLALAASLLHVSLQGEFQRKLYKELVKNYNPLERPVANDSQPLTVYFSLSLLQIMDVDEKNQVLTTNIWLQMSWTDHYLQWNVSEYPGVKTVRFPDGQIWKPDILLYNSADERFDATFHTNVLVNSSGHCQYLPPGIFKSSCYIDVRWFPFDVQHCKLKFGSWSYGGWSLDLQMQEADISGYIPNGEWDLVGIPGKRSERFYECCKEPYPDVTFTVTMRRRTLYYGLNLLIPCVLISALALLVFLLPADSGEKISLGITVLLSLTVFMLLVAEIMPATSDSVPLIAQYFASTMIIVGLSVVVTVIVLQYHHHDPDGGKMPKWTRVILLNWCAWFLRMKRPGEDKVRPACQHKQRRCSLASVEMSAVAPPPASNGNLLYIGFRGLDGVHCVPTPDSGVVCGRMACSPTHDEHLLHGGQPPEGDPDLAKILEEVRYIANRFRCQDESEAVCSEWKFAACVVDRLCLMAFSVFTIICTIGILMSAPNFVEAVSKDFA
Assay: Partial agonist activity at human alpha7 nAChR expressed in Xenopus laevis oocytes at 10 uM at -60 mV holding potential by measuring net charge by two electrode voltage-clamp assay
Type: cell-based
Conditions: Oocyte, filed as partial agonist
Answer each item with its documented Activity.

Challenge: Return Activity for the following compound: `C[N+]12CCC(CC1)N(C(=O)c1ccc(-c3cccc(C(F)(F)F)c3)o1)CC2`
Response given: 0.79

Challenge: Return Activity for the following compound: `O=C(c1ccc(-c2ccccc2)o1)N1CCN2CCC1CC2`
Response given: 0.54

Challenge: Return Activity for the following compound: `O=C(c1ccco1)N1CCN2CCC1CC2`
Response given: 0.71

Challenge: Return Activity for the following compound: `O=C(c1ccc(-c2ccc3ccccc3c2)o1)N1CCN2CCC1CC2`
Response given: 0.15

Challenge: Return Activity for the following compound: `O=C(c1ccc(-c2ccc(C(F)(F)F)cc2)o1)N1CCN2CCC1CC2`
Response given: 0.4

Challenge: Return Activity for the following compound: `Nc1cccc(-c2ccc(C(=O)N3CCN4CCC3CC4)o2)c1`
Response given: 0.1

Challenge: Return Activity for the following compound: `O=C(c1ccc(-c2cncc3ccccc23)o1)N1CCN2CCC1CC2`
Response given: 0.11

---

Answer each item with its documented pEC50.
Molecular target: Neuronal acetylcholine receptor subunit alpha-7 (Homo sapiens)
Test: Partial agonist activity at human alpha7 nAChR expressed in Xenopus laevis oocytes at -60 mV holding potential by two electrode voltage-clamp assay
Remember the convention: pEC50 equals -log10 of concentration in molar.

Challenge: Return pEC50 for the following compound: `O=C(c1ccco1)N1CCN2CCC1CC2`
Response given: 6.12

Challenge: Return pEC50 for the following compound: `C[N+]12CCC(CC1)N(C(=O)c1ccc(-c3cccc(C(F)(F)F)c3)o1)CC2`
Response given: 6.49

Reference for the values: ChEMBL document CHEMBL4765428
